assay_target: Tyrosine-protein kinase Lyn (Homo sapiens, UniProt P07948)
Sequence (P07948 whole entry): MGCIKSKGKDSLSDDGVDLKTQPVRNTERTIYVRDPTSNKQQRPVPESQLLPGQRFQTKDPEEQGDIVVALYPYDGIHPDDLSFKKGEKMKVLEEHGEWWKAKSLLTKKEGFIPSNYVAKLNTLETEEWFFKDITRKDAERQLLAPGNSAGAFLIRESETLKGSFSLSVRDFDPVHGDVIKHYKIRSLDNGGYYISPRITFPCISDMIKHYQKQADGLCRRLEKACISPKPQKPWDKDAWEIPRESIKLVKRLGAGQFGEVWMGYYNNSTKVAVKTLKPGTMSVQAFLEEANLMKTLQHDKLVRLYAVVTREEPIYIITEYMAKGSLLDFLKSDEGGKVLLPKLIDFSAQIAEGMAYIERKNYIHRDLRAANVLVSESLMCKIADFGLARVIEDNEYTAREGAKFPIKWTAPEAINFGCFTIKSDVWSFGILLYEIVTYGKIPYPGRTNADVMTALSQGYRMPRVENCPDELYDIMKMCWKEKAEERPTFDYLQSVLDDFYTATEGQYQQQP
endpoint_name: IC50 (nM)
The response must be a number in nM with no trailing unit.

Please fill in: IC50 reported for Cc1ccc(NC(=O)c2cc(N3CCN(C)CC3)cc(C(F)(F)F)c2)cc1NC(=O)c1cnoc1C = 65.9

###

System: U-937
method_description: Antiproliferative activity against human U937 cells after 24 hrs by MTT assay
Assay type: functional
study_conditions: U-937, 24 h
endpoint_name: GI50 (nM)
Provide the reading as a plain figure in nM.

Completed entries (count: 2):
INSERT INTO measurements (chemical_smiles, endpoint_name, result_unit, val) VALUES
  ('Cc1ccc(NC(=O)c2cnn(-c3ccccc3)c2C(F)(F)F)cc1NC(=O)c1cnoc1C', 'GI50', 'nM', 139),
  ('Cc1ccc(NC(=O)c2cc(-n3ccnc3C)cc(C(F)(F)F)c2)cc1NC(=O)c1cnoc1C', 'GI50', 'nM', 19);

Lab note: next compound to report on.
Reported GI50 ( Cc1ccc(NC(=O)c2cc(-n3cncc3C)cc(C(F)(F)F)c2)cc1NC(=O)c1cnoc1C ) = 26

Data provenance: ChEMBL document CHEMBL3616395
